Biological target: Human immunodeficiency virus type 1 reverse transcriptase (Human immunodeficiency virus 1)
Test: Inhibition of HIV-1 (wild type) reverse transcriptase at 10 uMol.
Details: 10 uM
readout: inhibition (%)

[
  {
    "chem.smiles": "Cc1cccc2c1nc(-c1c(F)cccc1F)n2Cc1c(Cl)cccc1Cl",
    "inhibition [%]": 58
  }
]

(a) Cc1cccc2c1nc(-c1ccncc1)n2Cc1c(F)cccc1F
(b) Cc1cccc2c1nc(-c1c(F)cccc1F)n2S(=O)(=O)c1ccccc1
QUERY: I'm curious whether a or b has the smaller inhibition number. Which is it? // output: label of the selected item
RESULT: b
(b: 39%, a: 70%)

----------
Target: Human immunodeficiency virus type 1 reverse transcriptase (Human immunodeficiency virus 1) (UniProt Q72547)
Test: Inhibition of HIV-1 (wild type) reverse transcriptase at 10 uMol.
Details: 10 uM
readout: inhibition (%)

Below, each entry is followed by its recorded inhibition result.
[
  {
    "chem.smiles": "Cc1ccccc1-c1nc2ccccc2n1Cc1c(F)cccc1F",
    "inhibition / %": 71
  },
  {
    "chem.smiles": "Fc1cccc(F)c1Cn1c(-c2c(F)cccc2F)nc2ccccc21",
    "inhibition / %": 93
  },
  {
    "chem.smiles": "O=S(=O)(c1ccccc1)n1c(-c2c(F)cccc2F)nc2ccccc21",
    "inhibition / %": 52
  },
  {
    "chem.smiles": "Cc1cccc2c1nc(-c1cccc3ccccc13)n2Cc1c(F)cccc1F",
    "inhibition / %": 2
  },
  {
    "chem.smiles": "Cc1cccc2c1nc(-c1c(F)cccc1F)n2Cc1c(F)cccc1F",
    "inhibition / %": 92
  }
]

(a) Cc1cccc2c1nc(-c1cccnc1)n2Cc1c(F)cccc1F
(b) Cc1cccc2c1nc(-c1ccc3ccccc3c1)n2Cc1c(F)cccc1F
QUERY: Of the two listed items, a and b , which carries the larger inhibition figure? // output: label of the selected item
RESULT: a
(a: 35%, b: 8%)

----------
Molecular target: Human immunodeficiency virus type 1 reverse transcriptase (Human immunodeficiency virus 1)
Experiment: Inhibition of HIV-1 (wild type) reverse transcriptase at 10 uMol.
Conditions: 10 uM
readout: inhibition (%)

Below, each entry is followed by its recorded inhibition result.
[
  {
    "chem.smiles": "Fc1cccc(F)c1-c1nc2ccccc2n1Cc1ccccc1",
    "assayed.target": "Human immunodeficiency virus type 1 reverse transcriptase (Human immunodeficiency virus 1)",
    "recorded.measurement": 71
  },
  {
    "chem.smiles": "Cc1cccc2c1nc(C(C)C)n2Cc1c(F)cccc1F",
    "assayed.target": "Human immunodeficiency virus type 1 reverse transcriptase (Human immunodeficiency virus 1)",
    "recorded.measurement": 53
  }
]

(1) Cc1cccc2c1nc(-c1ccc(C#N)cc1)n2Cc1c(F)cccc1F
(2) Cc1cccc2c1nc(-c1c(F)cccc1F)n2Cc1cccnc1
QUERY: I'm curious whether 1 or 2 has the smaller inhibition number. Which is it? // output: label of the selected item
RESULT: 1

----------
Target: Human immunodeficiency virus type 1 reverse transcriptase (Human immunodeficiency virus 1) (UniProt Q72547)
Assay: Inhibition of HIV-1 (wild type) reverse transcriptase at 10 uMol.
Conditions: 10 uM
readout: inhibition (%)

Below, each entry is followed by its recorded inhibition result.
[
  {
    "chem.smiles": "O=C(c1c(F)cccc1F)n1c(-c2c(F)cccc2F)nc2ccccc21",
    "inhibition, %": 8
  },
  {
    "chem.smiles": "Cc1nc2ccccc2n1Cc1c(F)cccc1F",
    "inhibition, %": 22
  },
  {
    "chem.smiles": "Cc1cccc2c1ncn2Cc1c(F)cccc1F",
    "inhibition, %": 40
  },
  {
    "chem.smiles": "Cc1cccc2c1nc(C=O)n2Cc1c(F)cccc1F",
    "inhibition, %": 59
  }
]

(P) Cc1cccc2c1nc(-c1c(F)cccc1F)n2Cc1c(F)c(F)c(F)c(F)c1F
(Q) Fc1cccc(F)c1COCc1nc2ccccc2n1Cc1c(F)cccc1F
(R) Cc1cccc2c1nc(CO)n2Cc1c(F)cccc1F
(S) Cc1cccc2c1nc(-c1c(F)cccc1F)n2Cc1ccccc1
QUERY: Order these by inhibition, descending, and give the full ranking. A ranking is expressed here by listing the labels in the requested order.
RESULT: S, P, R, Q
(S: 87%, P: 36%, R: 12%, Q: 7%)
